These measurements were taken from paper PMC10663500.

So I've got a bunch of binders here, and I need their pKd values.
# Test system: T1, mouse programmed cell death protein 1 Fc fusion protein (mPD-1-Fc), mPD-1 C60S (aa 25-167) (Mus musculus, UniProt Q02242, stabilised)
# T1 construct: not cleaved; source: Expi293F, purified (Protein A, SEC; dimeric fraction); not shown: Fc (human), C-terminal, kept
# Assay summary: SPR; Carterra LSA; Fab from the ammonium sulfate precipitate of the culture supernatant immobilised on a NiHC200M chip; hPD-1 (1-1024 nM) or mPD-1-Fc (4-1024 nM) as analyte, fourfold dilution series, no regeneration; HBS-EP pH 7.4, 25 °C; medians over the spots of a construct, KD = koff/kon
# Condition summary: one partner purified
pKd field: float, defined as -log10 of concentration (mol/L).

Reported pKd of toripalimab Fab H.V104A (Fab, V domains shown, heavy chain of Sm3 with this change; numbers count from the chain's first residue; as the light chain of Sm3; source: Brevibacillus, culture supernatant (ammonium sulfate precipitate); not shown: 6xHis, C-terminal, kept; 6xHN, C-terminal, kept) VH: QGQLVQSGAEVKKPGASVKVSCKASGYTFTDYEMHWVRQAPIHGLEWIGVIESETGGTAYNQKFKGRVTITADKSTSTAYMELSSLRSEDTAVYYCAREGITTAATTYYWYFDVWGQGTTVTVSS VL: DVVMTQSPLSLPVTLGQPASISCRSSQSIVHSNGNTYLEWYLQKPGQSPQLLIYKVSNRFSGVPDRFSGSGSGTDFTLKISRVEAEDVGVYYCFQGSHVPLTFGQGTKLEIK : 7.09

Reported pKd of toripalimab Fab H.T58Y (Fab, V domains shown, heavy chain of Sm3 with this change; numbers count from the chain's first residue; as the light chain of Sm3; source: Brevibacillus, culture supernatant (ammonium sulfate precipitate); not shown: 6xHis, C-terminal, kept; 6xHN, C-terminal, kept) VH: QGQLVQSGAEVKKPGASVKVSCKASGYTFTDYEMHWVRQAPIHGLEWIGVIESETGGYAYNQKFKGRVTITADKSTSTAYMELSSLRSEDTAVYYCAREGITTVATTYYWYFDVWGQGTTVTVSS VL: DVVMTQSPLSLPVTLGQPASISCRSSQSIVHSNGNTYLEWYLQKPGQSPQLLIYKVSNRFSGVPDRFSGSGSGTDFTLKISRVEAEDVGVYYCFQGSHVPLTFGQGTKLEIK : 6.67
